Entries and their IC50
Target: BTK (Homo sapiens (Human))
Sequence (Q06187 whole entry): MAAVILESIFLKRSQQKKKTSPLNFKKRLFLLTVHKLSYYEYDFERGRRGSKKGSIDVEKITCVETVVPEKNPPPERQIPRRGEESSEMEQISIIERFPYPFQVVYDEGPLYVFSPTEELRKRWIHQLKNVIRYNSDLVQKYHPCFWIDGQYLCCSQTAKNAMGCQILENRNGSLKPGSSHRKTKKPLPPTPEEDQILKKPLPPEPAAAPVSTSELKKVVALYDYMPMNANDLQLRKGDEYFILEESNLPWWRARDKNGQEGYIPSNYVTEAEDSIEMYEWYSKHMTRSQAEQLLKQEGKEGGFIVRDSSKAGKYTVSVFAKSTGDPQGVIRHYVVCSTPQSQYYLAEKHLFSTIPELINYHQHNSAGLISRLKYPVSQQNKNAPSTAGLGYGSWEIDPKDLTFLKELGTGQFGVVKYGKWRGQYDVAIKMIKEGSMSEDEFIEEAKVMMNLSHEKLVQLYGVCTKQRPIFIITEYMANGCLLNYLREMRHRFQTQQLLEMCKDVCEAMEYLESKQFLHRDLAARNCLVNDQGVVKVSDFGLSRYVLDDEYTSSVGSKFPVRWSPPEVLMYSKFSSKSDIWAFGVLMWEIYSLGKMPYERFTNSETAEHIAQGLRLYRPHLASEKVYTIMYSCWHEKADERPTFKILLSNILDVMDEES
Test: In vitro BTK kinase assay: BTK-POLYGAT-LS ASSAY
Conditions: read-out: IC50 (10 uM ATP); 10 uM ATP; in vitro Btk kinase assay, Example 41
assay_readout: IC50

INSERT INTO results (compound, assay_readout, reported_value) VALUES
  ('Cc1noc(C)c1NC(=O)Nc1cccc(C2CCCN(c3ncnc4[nH]ccc34)C2)c1 (centres unmarked)', 'IC50', '> 10 µM'),
  ('N[C@@H](C(=O)Nc1cccc(C2CCCN(c3ncnc4[nH]ccc34)C2)c1)c1ccccc1 (some centres unmarked)', 'IC50', '> 10 µM'),
  ('O=C(Nc1csc(C2CCCN(c3ncnc4[nH]ccc34)C2)n1)Nc1ccccc1N1CCCC1 (centres unmarked)', 'IC50', '< 0.1 µM'),
  ('Nc1ncnc(N2CC[C@@H](O)[C@H](N3CCC[C@@H](Nc4cc(Cl)cc(Cl)c4)C3=O)C2)c1F', 'IC50', '< 0.1 µM'),
  ('c1cnc(Nc2cccc(C3CCCN(c4ncnc5[nH]ccc45)C3)c2)nc1 (centres unmarked)', 'IC50', '> 10 µM'),
  ('CC(C)(C)NC1CCCN([C@@H]2CCCN(c3ncnc(N)c3F)C2)C1=O (some centres unmarked)', 'IC50', '> 10 µM'),
  ('O=c1c(Nc2ccc(Cl)cc2)c(Nc2cccc(C3CCCN(c4ncnc5[nH]ccc45)C3)c2)c1=O (centres unmarked)', 'IC50', '> 10 µM'),
  ('O=C(NCC1CCCNC1)Nc1cccc(C2CCCN(c3ncnc4[nH]ccc34)C2)c1 (centres unmarked)', 'IC50', '> 10 µM'),
  ('Nc1ncnc(N2CCOCC(N3CCCC(Nc4cc(Cl)cc(Cl)c4)C3=O)C2)c1F (centres unmarked)', 'IC50', '< 0.1 µM'),
  ('N#Cc1c(N)ncnc1N1CCCC(c2nc(NC(=O)Nc3ccccc3N3CCCC3)cs2)C1 (centres unmarked)', 'IC50', '< 0.1 µM'),
  ('O=C(Nc1ccccc1)NC1CN(C2CCCN(c3ncnc4[nH]ccc34)C2)C1 (centres unmarked)', 'IC50', '> 10 µM'),
  ('Cc1ccc(C2CCCN(c3ncnc4[nH]ccc34)C2)cc1NC(=O)c1ccccc1 (centres unmarked)', 'IC50', '> 10 µM'),
  ('O=C(Nc1ccccc1)Nc1cc(C2CCCN(c3ncnc4[nH]ccc34)C2)ccc1OC(F)(F)F (centres unmarked)', 'IC50', '> 10 µM'),
  ('CNc1c(Nc2cccc(C3CCCN(c4ncnc5[nH]ccc45)C3)c2)c(=O)c1=O (centres unmarked)', 'IC50', '> 10 µM'),
  ('O=C(Nc1ccccc1)Nc1cnc(C2CCCN(c3ncnc4[nH]ccc34)C2)s1 (centres unmarked)', 'IC50', '> 10 µM'),
  ('Nc1ncnc(N2C[C@@H](F)C[C@@H](N3CCCC(Nc4cc(F)cc(Cl)c4)C3=O)C2)c1F (some centres unmarked)', 'IC50', '< 0.1 µM'),
  ('Nc1ncnc(N2CCC[C@@H](N3CCCC(Nc4cc(F)cc(Cl)c4)C3=O)C2)c1F (some centres unmarked) [compound 277]', 'IC50', '< 0.1 µM'),
  ('CC(=O)N1CCN(c2ncnc3[nH]ccc23)CC1c1cccc(NC(=O)Nc2ccccc2)c1 (centres unmarked)', 'IC50', '> 10 µM'),
  ('O=C(Nc1cccc(C2CCCN(c3ncnc4[nH]ccc34)C2)c1)Nc1ccccc1N1CC[C@H](O)C1 (some centres unmarked)', 'IC50', '< 0.1 µM'),
  ('O=C1C(Nc2cc(Cl)cc(C(F)(F)F)c2)CCCN1[C@@H]1CCCN(c2ncnc3[nH]ccc23)C1 (some centres unmarked)', 'IC50', '< 0.1 µM'),
  ('O=C(Nc1cccc(C2CCCN(c3ncnc4[nH]ccc34)C2)c1)c1cccnc1 (centres unmarked)', 'IC50', '> 10 µM'),
  ('COc1ccc(C(=O)Nc2cccc(C3CCCN(c4ncnc5[nH]ccc45)C3)c2)cc1 (centres unmarked)', 'IC50', '> 10 µM'),
  ('N#Cc1c(N)ncnc1N1CCCC(c2nc(NC(=O)Nc3c(F)cc(F)cc3N3CCCC3)cs2)C1 (centres unmarked)', 'IC50', '< 0.1 µM'),
  ('C[C@@H]1CCCN1c1cccc(F)c1NC(=O)Nc1cccc(C2CCCN(c3ncnc4[nH]ccc34)C2)c1 (some centres unmarked)', 'IC50', '< 0.1 µM'),
  ('O=C(Nc1cc(C2CCCN(c3ncnc4[nH]ccc34)C2)cc(C(F)(F)F)c1)c1ccccc1 (centres unmarked)', 'IC50', '> 10 µM'),
  ('O=C(NCC1CCS(=O)(=O)C1)Nc1cccc(C2CCCN(c3ncnc4[nH]ccc34)C2)c1 (centres unmarked)', 'IC50', '> 10 µM'),
  ('C[C@H]1CCN(c2ncnc(N)c2F)C[C@@H]1N1CCCC(Nc2cccc(Cl)c2)C1=O (some centres unmarked)', 'IC50', '< 0.1 µM'),
  ('O=C(NCCC1CCCCC1)Nc1cccc(C2CCCN(c3ncnc4[nH]ccc34)C2)c1 (centres unmarked)', 'IC50', '> 10 µM'),
  ('Nc1ncnc(N2CC[C@@H](F)[C@@H](N3CCC[C@@H](Nc4cc(F)cc(Cl)c4)C3=O)C2)c1F', 'IC50', '< 0.1 µM'),
  ('O=C(Nc1ccccc1)Nc1cccc(C2CCCN(c3ncnc4[nH]cnc34)C2)c1 (centres unmarked)', 'IC50', '0.1 to 0.999 µM'),
  ('O=C(Nc1cccc(C2CCCN(c3ncnc4[nH]ccc34)C2)c1)Nc1ccc(F)cc1N1CCCC1 (centres unmarked)', 'IC50', '< 0.1 µM'),
  ('N#C/N=C(/NCC1CCCCC1)Nc1cccc(C2CCCN(c3ncnc4[nH]ccc34)C2)c1 (centres unmarked)', 'IC50', '> 10 µM');
